From: ChEMBL document CHEMBL1148867

- METHOD_NOTES: Half life in rat at 1 mg/kg, iv and 5 mg/kg, po
- Format: ADME, organism-based
- CONDITION_DETAILS: in vivo
PROPERTY: half-life (h)
Write the number in h without appending the unit.

*Q* Provide half-life value for the following molecule: CCc1cccc(CC)c1NC(=O)NCC1(O)CCN(Cc2cc(Br)ccc2OCc2ccc(Cl)cc2)CC1
*A* 4.3

---

- METHOD_NOTES: AUC in rat at 1 mg/kg, iv and 5 mg/kg, po
- Type: ADME, organism-based
- CONDITION_DETAILS: plasma
PROPERTY: AUC

*Q* Provide AUC value for the following compound: CCc1cccc(CC)c1NC(=O)NCC1(O)CCN(Cc2cc(Br)ccc2OCc2ccc(Cl)cc2)CC1
*A* 326 ng·h/mL
